procedure.summary: mn = molality of the nth substance listed, in mol/kg
stated.conditions: 298.15 K; 101 kPa; Liquid; Vibrating tube method; m1 = 0.25
reported.metric: mass density (kg/m3)
Give the value in kg/m3 but do not write kg/m3 after it.

Answered cases to consult:
[[record]]
compound = "[Cl-].[K+] [potassium chloride] + O"
reported = 1008.66

[[record]]
compound = "[Cl-].[Na+] [sodium chloride] + O"
reported = 1007.22

[[record]]
compound = "[Br-].[K+] [potassium bromide] + O"
reported = 1017.89


Next compound, please.
Query: Can you share its mass density? I mean this compound: CC(=O)[O-].[K+] [potassium ethanoate] + O
Reply: 1008.74
